Reported endpoint: melting point

Solved cases below.
[
  {
    "Compound": "CC1(CN2CCC(OCc3ccc(Cl)cc3)CC2)Cn2cc([N+](=O)[O-])nc2O1 (centres unmarked)",
    "Test value": "129 to 130 °C"
  },
  {
    "Compound": "CC(C)(C)OC(=O)NC1CCN(C[C@@]2(C)Cn3cc([N+](=O)[O-])nc3O2)CC1",
    "Test value": "158.5 to 160.7 °C"
  },
  {
    "Compound": "C[C@]1(COc2ccc(C3CCN(C(=O)OCc4ccc(OC(F)(F)F)cc4)CC3)cc2)Cn2cc([N+](=O)[O-])nc2O1",
    "Test value": "202.5 to 204 °C"
  },
  {
    "Compound": "C[C@]1(CN2CCN(C(=O)OCC=Cc3cccc(Cl)c3)CC2)Cn2cc([N+](=O)[O-])nc2O1.O=C(O)/C=C\\C(=O)O",
    "Test value": "150 to 151 °C"
  },
  {
    "Compound": "C[C@]1(CN2CCC(N3CCN(Cc4ccc(OC(F)(F)F)cc4)CC3)CC2)Cn2cc([N+](=O)[O-])nc2O1",
    "Test value": "142 to 143 °C"
  }
]

For reference, reported melting point for CC1(Cn2c(=O)oc3ccc(Cl)cc32)Cn2cc([N+](=O)[O-])nc2O1 (centres unmarked) stands at 207.6 to 207.9 °C

response.value for CN(C(=O)OC[C@@]1(C)Cn2cc([N+](=O)[O-])nc2O1)c1ccc(OC(F)(F)F)cc1 (field: melting point) = 144 to 145 °C
